Collected literature values of IC50 measured for Tyrosine-protein phosphatase non-receptor type 1 (Homo sapiens).
Target: Tyrosine-protein phosphatase non-receptor type 1 (Homo sapiens)
Sequence (P18031 whole entry): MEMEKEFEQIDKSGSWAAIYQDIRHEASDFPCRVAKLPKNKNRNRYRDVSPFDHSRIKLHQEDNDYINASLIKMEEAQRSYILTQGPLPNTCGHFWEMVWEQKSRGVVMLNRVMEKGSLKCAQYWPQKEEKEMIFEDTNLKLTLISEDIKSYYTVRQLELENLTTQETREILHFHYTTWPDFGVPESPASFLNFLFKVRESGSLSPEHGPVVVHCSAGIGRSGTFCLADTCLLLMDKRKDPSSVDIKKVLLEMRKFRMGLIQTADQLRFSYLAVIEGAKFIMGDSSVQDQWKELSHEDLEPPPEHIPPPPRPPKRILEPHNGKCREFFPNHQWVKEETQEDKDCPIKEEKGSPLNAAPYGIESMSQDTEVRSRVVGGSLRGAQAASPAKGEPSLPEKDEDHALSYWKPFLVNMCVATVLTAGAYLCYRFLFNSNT
Please give a number only; it is taken to be in µM.

(Q) Quick one: give measured IC50 for `O=C(O)c1ccc2ccccc2c1O`
(A) 850

(Q) Give the measured IC50 for COC(=O)C1C(c2ccc3occc3c2OC)=NOC1c1ccccc1 (configuration not stated)
(A) 199

(Q) State its IC50 for this compound: `Cn1c(-c2ccccc2)c(-c2cn(CCC(=O)Nc3ccc(-c4ccccc4)cc3)nn2)c2cc(C(=O)O)c(O)cc21`
(A) 14.3

(Q) Recall and state the measured IC50 for `O=C(O)COc1c(F)ccc(S(=O)(=O)N(Cc2ccccc2)Cc2ccc(C(F)(F)P(=O)(O)O)cc2)c1F` .
(A) 1.6

(Q) Indicate the recorded IC50 value for this compound: `CC1(C)CC[C@]2(C(=O)O)CC[C@]3(C)C(=CC[C@@H]4[C@@]5(C)Cc6cnc(N)nc6C(C)(C)[C@@H]5CC[C@]43C)[C@@H]2C1`
(A) 1.78

(Q) Please give the documented IC50 of `CO[C@]1(C)CC[C@@H]2[C@H]([C@H]3[C@H]1CC[C@]3(C)[C@@H](CC(C)C)c1c(O)c(C=O)c(O)c(C=O)c1O)C2(C)C`
(A) 4.1

(Q) Supply recorded IC50 for `COc1ccc(-c2cnc(-c3cc(O)c(O)c(Br)c3Br)o2)cc1Br` here.
(A) 10.3

(Q) Report measured IC50; entry is `CC(C)=CCc1cc([C@@H]2CC(=O)c3ccc(O)c(CC=C(C)C)c3O2)ccc1O`
(A) 37.5

(Q) Please give measured IC50 of the following entry: `Cc1oc(-c2ccc(C(F)(F)F)cc2)nc1-c1cccc(-c2ccc(O)cc2)c1`
(A) 0.01

(Q) Kindly indicate its recorded IC50. Item: CCCC/C=C/CCCCCCCCCC1(O)CC(=O)c2c(O)c(C)c(O)c(C)c2O1 (configuration not stated)
(A) 1.8

(Q) Look up and state reported IC50 for `CCCc1cc(-c2ccc(-c3c(Cc4ccccc4)oc4ccccc34)cc2)ccc1O[C@@H](Cc1ccccc1)C(=O)O`
(A) 0.832

(Q) Complete the entry with IC50 for CCOCC1(CN2CCN(C)CC2)COc2ccc3c(C)cc(=O)oc3c2C1=O (configuration not stated)
(A) 65.5

(Q) Note down IC50 recorded for `Cc1ccc(S(=O)(=O)Oc2ccc(/C=C3\SC(=O)NC3=O)c(OS(=O)(=O)c3ccc(C)cc3)c2)cc1`
(A) 16

(Q) Tell me IC50 reported for CCCCC/C=C\C/C=C\CCCCCCCC1(O)CC(=O)c2c(O)cc(O)cc2O1 (configuration not stated)
(A) 0.42
